Data provenance is patent US20100278834A1.

Biological target: H5 hemagglutinin (HA) of H5N1 influenza A virus, strain not stated (influenza A virus (H5N1), strain not stated)
Assay: cross-inhibition of binding to HA; competitor: FLA3.14
Exercise: for every item that follows, state its recorded Inhibition of binding (%).
Field: numeric (%). Do not append units.

What the record says about FLD129 (antibody, V domains shown) VH: EVQLVESGGGLVQPGRSLRLSCAASGFTFSDFWMSWVRQAPGKGLEWVANIDQDGNERFYADSVKGRFTISRDNAKNSLYLQMTSLRADDTAVYYCARDGREGYFYGSGSFYNLKGLNWGQGTLLTVSS VL: QSVLTQPPSVSAAPGQRVTISCSGTSSNIGKNYVSWYQQLPGAAPKLLIYDNDKRPSGIPDRFSGSKSGTSATLGITGLQTGDEADYYCGTWDSSLSVGMFGGGTRLTVL : Inhibition of binding (%) is 0

Value of measured Inhibition of binding (%) for the entry FLD122 (antibody, V domains shown) VH: QFQLVQSGPEVKKPGTSVKVSCKASGYTSTTYGISWVRQVPGQGLEWMGWINPYNGNPHYGQKFQGRVTLTRDTSTNTAYLEILSLRSDDTAVYYCARDGWGQQLVPYYFDYWGQGTLVTVSS VL: DIVMTQSPLSLPVTPGEPASISCRASQSLLHSNGYNYLDWYLQKPGQSPQLLIQLGSTRASGVPDRFSGSGSGTDFTLEISRVEAEDVGVYYCMQALQLPLAFGQGTRLEIK : 65

Kindly note the recorded Inhibition of binding (%) for FLD127 (antibody, V domains shown) VH: QVQLVESGGGVVQPGRSLRLSCAASGFTFSSYGMHWVRQAPGKGLEWVAVIWYDGDNKYYGDSVKGRFTISRDNSKNTLFLQMNSLRAEDTAVYYCAKDTADHGDYVDLGFFDAWGQGTLVTVSS VL: DIQMTQSPSSVSASVGDRVTITCRASQDVSTWLAWYQLKPGKAPKLLIYAASSLQSGVPSRFSGSGSGTDFTLTVSSLQPEDFATYYCQQANSFPFTFGPGTKVDIK , which is 0

# binder FLA5.10 (antibody, V domains shown) VH: QVQLVQSGAEVKEPGSAMKVSCKASGGTFSSDAFCWVRQAPGRGLEWMGGIIPVFQTANYGPNFQGRVTISADVYTTTLYLELSGLTSEDTAVYFCARSGDGYNYYFPLWGQGTLVTVSS VL: DIQMTQSPSTLSGSVGDRVTITCRASQNIGPWLAWYQQESGKAPKLLISRASILESGVPSRFSGTGTGTEFTLTISSLQPDDFATYYCQHYNAYWGTFGQGTKVEIN ; its Inhibition of binding (%) = 0

For FLD20.19 (antibody, V domains shown) VH: QVQLVQSGAEVKKPGSSVTVSCKASGGTFSNYGISWVRQAPGQGLDWMGGIIPLFGTANYAQKFQGRVTITADESTSSSNMELSSLRSEDTAVYYCARDVHNYDFLTGYPLHLYGMDVWGQGTTVTVSS VL: DIQMTQSPSSLSASVGDRVTITCRASQSISTYLNWYQQKPGIPPKLLINVASSLQSGVPSRFSGSGSGTDFTLTISSLQPEDFASYYCQQTYSSPPTFGQGTKVEIK the binder record lists Inhibition of binding (%) as 0

Noted for FLD132 (antibody, V domains shown) VH: EVQLVQSGAELKMPGESLKISCKASGYTFTNYWIGWVRQTPGKGLEWMGIIFPPDSQTSYSPSFQGQVTFSVDNSISVAYIQWSSLKASDTAIYYCARSGIFDWSAPLVEAFDIWGQGTVVTVSS VL: DIQLTQSPSFLSASVGDGVTITCRASQDIYIYLAWYQQKPGKAPKLLIYAASTLQGGVPSRFSGSGSGTEFTLTINNLQPEDFATYFCQQLNGYPLTFGGGTKVEIK : its Inhibition of binding (%) reads 0

The recorded Inhibition of binding (%) for entry FLD93 (antibody, V domains shown) VH: WWQLVQSGAEVKKPGSSVKVSCKASGGTFSSYDISWVRQAPGQGLEWMGGIIPIYGTANYAQKFQGRVTITADESTSTAYMELSSLRSEDTAVYYCARAGGDSSGYYGALGRFFQHWGQGTLVTVSS VL: VIWMTQSPSLLSASTGDRVTISCRMSQGISSYLAWYQQKPGKAPELLIHTAYTLKSGVPSRFSGSGSGKDFTLTISGLQSEDFATYYCQQYYSFPYTFGQGTKVEIK equals 0

Noted for FLA3.14 (antibody, V domains shown) VH: EVQLVQSGAEVKKPGESLKISCQASGYSFTSRWIGWVRQMPGKGLEWVGFIYPSDSDVRYSPSFRGQVTISADKSISTAYLQWSSLKASDTAMYFCARLGGNKDYGDYLWYFDLWGRGALVTVSS VL: EIVMTQSPDTLSVSPGERATLSCRASQSVNRRLAWYQQKPGQAPRLLIHDASTRATGIPARFSGSGSGTEFTLTISSLQSEDFAVYYCQQYDNWLSFGQGTRLEIK : its Inhibition of binding (%) reads 100

Consider FLD84 (antibody, V domains shown) VH: QVQLQESGPGLVKPSETLSLICAVSGASISSSYWSWIRQPPGKGLEWIGYIYYSGVTKYNPSLKSRVTLSVDTSKNHFSLKLSYVTAADTAVYYCARNLPDIAVVTAVQDATPVWFDPWGPGTLVSVSS VL: DIQLTQSPSSLSASVGDRVTITCRASQGIITYLNWYQQKPGKAPKLLIYATYSLQNGVPSRFSGSGSGTDFTLTISSLQPEDFATYYCQQSYSSLMFTFGQGTKLDIK . Its measured Inhibition of binding (%) is 0
